Attribution: patent US20250332157A1

Test: Forced degradation experiment of active ingredient (acid, alkali, oxidation, high temperature, light, high humidity), HPLC
Assay type: physicochemical
Settings: Light exposure destruction

chemical_string	Impurities C + D
CC[C@@H](c1ccccc1)N1Cc2cc3c(cc2C[C@H]1C(=O)N[C@@H](Cc1ccc(-c2ccnc(C)c2C)cc1)C(=O)O)OC[C@H](c1ccc(OCc2ccc(Cl)c(Cl)c2)cc1)O3	0.01%
